src = patent US20240084032A1

Each entry below carries its reported pKd.
assayed-target: T1, Cynomolgus monkey CDCP1 (Macaca fascicularis, UniProt A0A2K5VLA8);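 also: antibody captured for 120 s on the sensor, followed by 300 s association with CDCP1 and a 300–600 s dissociation phase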
T1 construct: recombinant ectodomain from CHO cells; construct not given; also called cyCDCP1; BBP468
protocol-description: Octet BLI, Ab on Protein A sensor, recombinant CDCP1 analyte
Field pKd (float): negative decimal logarithm of the concentration in molar.

- 42C5 (antibody, V domains shown) VH: EVQLVESGGGLVQPGGSLRLSCAASGFTFSRYWMNWVRQAPGKGLEWVANIKQDGSEKDYVDSVKGRFTISRDNAKNSLFLQMSSLRAEDTAVYYCARVMYSSGWSFDYWGQGTLVTVSS VL: DIVMTQSPLSLPVTPGEPASISCRSSRSLLHSSGYNFLDWFLQKPGQSPQLLIFLGSDRASGVPDRFSGSGSGTDFTLKISRVETEDVGVYYCMQALQTPITFGQGTRLEIK: 7.92
- 14H4 (antibody, V domains shown) VH: EVQLLESGGDLVQPGGSLRLSCAASGFTFNSYAMSWVRQAPGKGLEWVSVLSGSGGDIHYADSVKGRFTVSRDNSKNMLYLQMNSLRAEDTAVYFCAQQWPQGYWGQGTLVTVSS VL: DIQMTQSPSSLSASVGDRVTITCRASQGISIYLAWFQQKPGKVPKLLIYAASTLQSGVPSRFSGSGSGTDFTLTISSLQPEDVATYYCQKYNSAPFTFGPGTKVEIK: 8.30

Let us move to another entry and its pKd.
Qu. # get_value(readout='pKd', item= 04G06 (antibody, V domains shown, also called 4G6) VH: QVQLVESGGGVVQPGRSLRLSCVVSGFTLSSYGMHWVRQAPGKGLEWVAVIWYDGSDKYYADSVKGRFTISRDNSKNTLYLQMNSLRAEDTAVYYCARDDWGFDYWGQGTLVTVSS VL: DIQLTQSPSFLSASVGDRVTITCRASQDISNYLAWYQQKPGKAPKLLISASTLQSGVPSRFSGSGSGTEFILTISSLQPEDFATYYCQHLNSYPFGQGTKVEIK )
Ans. 7.57
